biological target: human cloned CHRM2 receptor (Homo sapiens); test: CHRM2 Ca++ Flux Assay (M2_CHO cells, agonist mode); conditions: M2 CHO cells, agonist mode; geometric mean if tested more than once; read-out: M2 FDSS EC50
Sequence (P08172 whole entry): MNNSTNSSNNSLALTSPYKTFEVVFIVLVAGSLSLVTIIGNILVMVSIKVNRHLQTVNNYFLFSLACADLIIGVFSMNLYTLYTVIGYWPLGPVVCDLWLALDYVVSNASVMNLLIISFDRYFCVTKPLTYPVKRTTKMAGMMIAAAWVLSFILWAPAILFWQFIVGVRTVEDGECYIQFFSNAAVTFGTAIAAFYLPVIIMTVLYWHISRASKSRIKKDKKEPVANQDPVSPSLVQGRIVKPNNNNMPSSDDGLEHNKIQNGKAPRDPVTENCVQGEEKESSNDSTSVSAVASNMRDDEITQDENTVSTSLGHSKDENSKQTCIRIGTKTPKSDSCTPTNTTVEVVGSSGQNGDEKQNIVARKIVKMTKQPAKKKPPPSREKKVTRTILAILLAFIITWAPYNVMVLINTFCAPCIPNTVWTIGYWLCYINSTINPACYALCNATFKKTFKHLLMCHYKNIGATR
endpoint: EC50 (µM)

Study these solved cases before continuing.
Fc1ccc(OC[C@H]2CCO2)c(C2CCN([C@@H]3COC4(C3)CN(c3nncs3)C4)CC2)c1.O=C(O)C(F)(F)F (single isomer, unassigned) [Example 2C] : 0.321
Fc1ccc(OC2CC3(COC3)C2)c(C2CCN([C@@H]3COC4(C3)CN(c3ncco3)C4)CC2)c1 [Example 4G] : 13.1
Fc1ccc(OC[C@@H]2CCOC2)c(C2CCN([C@@H]3COC4(C3)CN(c3nnco3)C4)CC2)c1 [Example 1B] : 0.492
Cc1nnc(-c2ccccc2C2CCN([C@@H]3COC4(C3)CN(c3nnco3)C4)CC2)o1 [Example 1Y] : 0.874
Fc1ccc(OC[C@H]2COCCO2)c(C2CCN([C@@H]3COC4(C3)CN(c3nnco3)C4)CC2)c1 [Example 1C] : 0.503
c1ccc(C2CCN([C@@H]3COC4(C3)CN(c3nnco3)C4)CC2)c(C2CCOCC2)c1 [Example 3C] : 4.82

a: Fc1cc(OCC2COC2)c(C2CCN([C@@H]3COC4(C3)CN(c3ncco3)C4)CC2)cc1F [Example 4O]
b: Fc1ccc(OC2CCOCC2)c(C2CCN([C@@H]3COC4(C3)CN(c3nncs3)C4)CC2)c1 [Example 5J]
c: CCC1(COc2ccc(F)cc2C2CCN([C@@H]3COC4(C3)CN(c3nnco3)C4)CC2)COC1 [Example 2P]
d: Fc1ccc(OC[C@H]2CCOC2)c(C2CCN([C@@H]3COC4(C3)CN(c3nnco3)C4)CC2)c1 [Example 1I]
e: Fc1ccc(OCC2(F)COC2)c(C2CCN([C@@H]3COC4(C3)CN(c3nnco3)C4)CC2)c1 [Example 2J]
Provide the items ranked by increasing EC50. The labels, placed in the requested order, form the answer.
e, d, c, b, a
